Cited source for all entries: patent US20240279215A1

test_target: human NAMPT (Homo sapiens (Human), UniProt P43490)
Sequence (P43490 whole entry): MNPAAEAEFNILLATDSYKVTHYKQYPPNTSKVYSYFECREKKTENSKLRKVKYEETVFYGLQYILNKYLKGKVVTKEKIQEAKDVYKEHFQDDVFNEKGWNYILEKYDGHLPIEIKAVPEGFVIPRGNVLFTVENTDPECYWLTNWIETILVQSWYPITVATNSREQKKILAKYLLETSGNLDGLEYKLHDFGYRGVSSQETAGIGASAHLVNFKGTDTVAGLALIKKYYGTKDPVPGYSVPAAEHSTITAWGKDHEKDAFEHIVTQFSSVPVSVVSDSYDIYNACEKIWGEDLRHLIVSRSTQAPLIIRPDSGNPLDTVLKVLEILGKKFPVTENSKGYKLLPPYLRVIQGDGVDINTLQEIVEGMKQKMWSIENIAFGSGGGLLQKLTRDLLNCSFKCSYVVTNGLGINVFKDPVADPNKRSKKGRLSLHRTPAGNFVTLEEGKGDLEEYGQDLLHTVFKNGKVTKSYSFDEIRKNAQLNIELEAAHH
protocol_summary: NMN fluorescence biochemical assay (human recombinant NAMPT enzyme assay)
recorded_metric: EC50

Below, each entry is followed by its recorded EC50 result.
CN(C)S(=O)(=O)N1CCC(c2ccc(NC(=O)OCc3cnco3)cc2)CC1 [Compound 432]    4.73 µM
Cc1ocnc1C(=O)N[C@@H](C)c1ccc(NC(=O)OCc2ccc(Cl)cc2)cc1 [Compound 241]    11.8 µM

**Q:** Under human NAMPT (Homo sapiens (Human), UniProt P43490): report EC50 of CCc1cc(C(=O)N[C@@H](C)c2ccc(NC(=O)OCc3ccc(Cl)cc3)cc2)n(C)n1 [Compound 137] .
**A:** 3.83 µM

**Q:** Provide EC50, recorded with human NAMPT (Homo sapiens (Human), UniProt P43490), of O=C(Nc1ccc(CC(=O)N2CCC(O)CC2)cc1)OCc1ccc(Cl)cc1 [Compound 119]
**A:** 21.7 µM

* * *

test_target: human NAMPT (Homo sapiens (Human))
protocol_summary: NMN fluorescence biochemical assay (human recombinant NAMPT enzyme assay)
recorded_metric: AC1.4 Human (µM)
Kindly provide the numeric value in µM only, without the unit symbol.

Cc1nocc1C(=O)N[C@@H](C)c1ccc(NC(=O)OCc2ccc(Cl)cc2)cc1    1.24
Cc1ccc(Cc2ccc(NC(=O)OCc3ccncc3)cc2)cn1    1.61
O=C(Nc1ccc(CCC2CCN(C(=O)C3COC3)CC2)cc1)OCc1cnco1    0.22

// next entry
**Q:** Answer with reported AC1.4 Human of COCCn1nccc1C(=O)N[C@@H](C)c1ccc(NC(=O)OCc2ccc(Cl)cc2)cc1
**A:** 0.53

* * *

test_target: human NAMPT (Homo sapiens (Human))
protocol_summary: NMN fluorescence biochemical assay (human recombinant NAMPT enzyme assay)
AC1.4 Human values, listed per item
Include the unit right after the number.

COCCn1nccc1C(=O)N(C)Cc1ccc(NC(=O)OCc2ccc(Cl)cc2)cc1    0.65 µM

Okay, now this compound:
**Q:** Recall and state the measured AC1.4 Human for COc1nc(C)ccc1C(=O)N[C@@H](C)c1ccc(NC(=O)OCc2ccc(Cl)cc2)cc1 .
**A:** 1.95 µM

* * *

test_target: human NAMPT (Homo sapiens (Human), UniProt P43490)
protocol_summary: NMN fluorescence biochemical assay (human recombinant NAMPT enzyme assay)
Known AC1.4 Human of a selection of compounds

See these solved cases before continuing.
CC(O)(c1ccncc1)c1ccc(NC(=O)OCc2cnco2)cc1 (stereo not shown)    4.62 µM
Cc1nc(C)c(C(=O)N(C)Cc2ccc(NC(=O)OCc3ccc(Cl)cc3)cc2)o1    1.54 µM
C[C@H](NC(=O)N1CCCC1)c1ccc(NC(=O)OCc2ccc(Cl)cc2)cc1    0.83 µM

**Q:** Name the recorded AC1.4 Human of the item Cc1ccc(C(=O)NCc2ccc(NC(=O)OCc3ccc(OC(F)F)cc3)cc2)cn1 in your answer.
**A:** 3.32 µM

* * *

test_target: human NAMPT (Homo sapiens (Human))
protocol_summary: NMN fluorescence biochemical assay (human recombinant NAMPT enzyme assay)
Listing of entries alongside the reported EC50.
State the answer as a number, implicitly in µM.

O=C1CN(C2COC2)[C@@H](c2ccc(NC(=O)OCc3ccc(Cl)cc3)cc2)CN1 [Compound 346]    45.3
CN(Cc1ccc(NC(=O)OCc2ccc(Cl)cc2)cc1)C(=O)c1n[nH]cc1F [Compound 71]    2.51
O=C(Nc1ccc(CC2CCN(S(=O)(=O)N3CCC3)CC2)cc1)OCc1cnco1 [Compound 465]    7.25

**Q:** Specify measured EC50 for O=C(Nc1ccc(CC2CCN(C(=O)C3CC(F)(F)C3)CC2)cc1)OCc1cnco1 [Compound 470] .
**A:** 37.5

* * *

In this section, each of the compounds is paired with its reported pEC50.
test_target: human NAMPT (Homo sapiens (Human))
protocol_summary: NMN fluorescence biochemical assay (human recombinant NAMPT enzyme assay)
# log scale: pEC50 equals minus log10 of the concentration in mol/L

Cc1nn(C)c(C(=O)NCc2ccc(NC(=O)OCc3ccc(Cl)cc3)cc2)c1F    5.15
CN(C)C(=O)N1CCC[C@@H](c2ccc(NC(=O)OCc3cnco3)cc2)C1    4.68
CO[C@H]1CCCN(C(=O)Cc2ccc(NC(=O)OCc3ccc(Cl)cc3)cc2)C1    5.00

For the next question, use this compound.
**Q:** Item O=C(Cc1ccc(NC(=O)OCc2ccc(Cl)cc2)cc1)NC1COC1 : provide pEC50
**A:** 4.34

* * *

test_target: human NAMPT (Homo sapiens (Human), UniProt P43490)
protocol_summary: NMN fluorescence biochemical assay (human recombinant NAMPT enzyme assay)
AC1.4 Human of 0.5 µM or higher: true (1). Under 0.5 µM: false (0).

CN1CC[C@H](NCc2ccc(NC(=O)OCc3ccc(Cl)cc3)cc2)C1=O [Compound 228]    true (1)
O=C(Nc1ccc(CC2CCN(C(=O)N3CCC3)CC2)cc1)OCc1cnco1 [Compound 468]    false (0)
O=C(Nc1ccc(C2CCN(C3COC3)CC2)cc1)OCc1ccc(Cl)cc1 [Compound 198]    true (1)
O=C(Nc1ccc(Cc2cncs2)cc1)OCc1ccc(Cl)cc1 [Compound 351]    true (1)
O=C(Nc1ccc(CC(=O)N2CCC(F)CC2)cc1)OCc1ccc(Cl)cc1 [Compound 212]    true (1)

**Q:** Dear colleague, could you confirm whether CC1(C)CCN(Cc2ccc(NC(=O)OCc3ccc(Cl)cc3)cc2)C1=O [Compound 123] has AC1.4 Human at or above 0.5 µM?
**A:** true (1)

**Q:** Does the reported AC1.4 Human for CC(=O)N1CCC(Cc2ccc(NC(=O)OCc3ccncc3)cc2)CC1 [Compound 115] fall at or above the 0.5 µM mark?
**A:** true (1)

**Q:** Item Cc1nc(C)c(C(=O)N[C@@H](C)c2ccc(NC(=O)OCc3ccc(Cl)cc3)cc2)o1 [Compound 125] with AC1.4 Human of 0.5 µM or above?
**A:** true (1)

**Q:** Hello, I need to know if Cc1ccc(C(=O)N(C)Cc2ccc(NC(=O)OCc3ccc(Cl)cc3)cc2)cn1 [Compound 104] has measured AC1.4 Human not below 0.5 µM. Thanks!
**A:** true (1)

**Q:** Given Cc1cc(C(=O)N(C)Cc2ccc(NC(=O)OCc3ccc(Cl)cc3)cc2)on1 [Compound 160] , state whether its AC1.4 Human is at least 0.5 µM.
**A:** true (1)

**Q:** Answer whether AC1.4 Human of Cc1ccc(C(=O)NCc2ccc(NC(=O)OCc3ccncc3)cc2)cn1 [Compound 37] is greater than or equal to 0.5 µM.
**A:** false (0)

**Q:** For this molecule, is measured AC1.4 Human 0.5 µM or higher? Cc1ocnc1C(=O)N[C@@H](C)c1ccc(NC(=O)OCc2ccc(Cl)cc2)cc1 [Compound 241]
**A:** true (1)

**Q:** // inclusive: AC1.4 Human at least 0.5 µM? input: COC(=O)N1CCC(Cc2ccc(NC(=O)OCc3cnco3)cc2)C2CC21 (stereo not drawn) [Compound 456]
**A:** false (0)

* * *

# Cplasma, total (μM) per entry
protocol_summary: Brain exposure assay in mice (brain-to-plasma ratio after oral administration)
Assay type: in vivo
particulars: mouse, 100 mg/kg, 2 hr

CN(C)S(=O)(=O)N1CCC(Cc2ccc(NC(=O)OCc3cnco3)cc2)CC1    42.1, μM
CN(C)S(=O)(=O)N1CC2(CC(Cc3ccc(NC(=O)OCc4cnco4)cc3F)C2)C1    44, μM
CN(C)C(=O)N1CCC(Cc2ccc(NC(=O)OCc3cnco3)cc2F)CC1    59.4, μM

**Q:** Kindly indicate its recorded Cplasma, total (μM). Item: CN(C)C(=O)N1CC2(CC(c3ccc(NC(=O)OCc4cnco4)cc3F)C2)C1
**A:** 13.5, μM

**Q:** Return the recorded Cplasma, total (μM) value; entry: CN(C)C(=O)N1CCC[C@H](c2ccc(NC(=O)OCc3cnco3)cc2)C1
**A:** 104, μM

* * *

In this section, each of the compounds is paired with its reported concentration at 6 h.
protocol_summary: Brain exposure assay in mice (brain-to-plasma ratio after oral administration)
Format: in vivo
particulars: male, C57BL/6JNIFDC, mouse, plasma, oral, 100 mg/kg, 6 hr, read-out: Cplasma, total
A number alone suffices; assume µM.

Some solved cases for reference:
CN(C)C(=O)N1CCC[C@H](c2ccc(NC(=O)OCc3cnco3)cc2)C1 [Compound 376]    45.5
CN(C)S(=O)(=O)N1CCC(Cc2ccc(NC(=O)OCc3cnco3)cc2)CC1 [Compound 27]    5.9
CN(C)S(=O)(=O)N1CC2(CC(Cc3ccc(NC(=O)OCc4cnco4)cc3F)C2)C1 [Compound 399]    26.8
CN(C)C(=O)N1CCC(Cc2ccc(NC(=O)OCc3cnco3)cc2F)CC1 [Compound 449]    18

**Q:** Tell us which concentration at 6 h value is on record for CN(C)C(=O)N1CC2(CC(c3ccc(NC(=O)OCc4cnco4)cc3F)C2)C1 [Compound 400]
**A:** 3.1
